Numbers sourced from patent US20240409617A1.

Some binders, each annotated with its measured pKd.
- target-desc: D614G Spike (SARS-CoV2)
pKd: −log10 of the molar value.
readout-label: pKd

[
  {
    "binder": "Ab_25 scFv-Fc (scFv, V domains shown) VH: QVQLVQSGGGLVQPGGSLRLSCAASGFTFSSYWMSWVRQAPGKGLEWVANIKQDGSEKYYVDSVKGRFTISRDNAKNSLYLQMNSLRAEDTAVYYCARGFYYYGAFDIWGQGTTVTVSS VL: NFMLTQPHSVSESPGKTVTISCTGSSGSIASNYVQWYQQRPGSAPTTVIYEDNQRPSGVPDRFSGSIGSSSNSASLTISGLKTEDEADYYCQSYDSSNHWVFGGGTKLTVL",
    "value": 11.07
  },
  {
    "binder": "S1-R3-T1-C4 (Ab_8) scFv-Fc (scFv, V domains shown) VH: QVQLVQSGAEVKKPGSSVKVSCKASGGTFSSYAISWLRQAPGQGLEWMGWINPNSGGTNYAQKFQGRVTMTRDTSISTAYMELSRLRSDDTAVYYCARGSGGYYLGWGQGTLVTVSS VL: QPGLTQPPSVSKGLRQTATLTCTGNSNNVGNQGAAWLQQHQGHPPKLLSYMNNNRPPGISERFSASRSGNTASLTITGLQPEDEADYYCSAWDSSLSRWVFGGGTKLSVL",
    "value": 11.14
  },
  {
    "binder": "RBD-R3-E1-A5 Ab (Ab_30) scFv-Fc (scFv, V domains shown) VH: QVQLVQSGGGVVQPGKSLRLSCTASGFTFSDFPIHWVRQAPGKGLEWVGVISYDGNIKYYGDSVKGRFTISRDNAKNSLYLQMNSLRVEDTAVYYCARGGSSFDIWGQGTTVTVSS VL: SYELTQPPSVSEAPRQRVTISCSGSTSNIGNNAVSWYQHLPGKAPKLLIYYNERLPSGVSDRFSGSKSGTSASLAISGLRSEDEADYYCAAWDDSLSGHVVFGGGTKLTVL",
    "value": 11.13
  },
  {
    "binder": "Ab_23 scFv-Fc (scFv, V domains shown) VH: EVQLVQSGAEVKKPGSSVKVSCRSSGGTFSTYGITWVRQAPGQGLEWMGRIIPSLGIPNYAQKFQGRVTITADTSVSTAWMELSSLESDDTAIYYCARENIDLATNDFWGQGTLVTVSS VL: QSALTQPPSASGSPGQSVTISCTGTSRDIGAYGYVSWYQQVPGKAPKLIIYEVRNRPSGVSSRFSGSKSGNTASLTISGLQAEDEADYYCSSYTSSSTLDVVFGGGTKLTVL",
    "value": 11.05
  },
  {
    "binder": "Ab_14 scFv-Fc (scFv, V domains shown) VH: QVQLQQSGPGLVKPSQTLSLTCAISGDSVSSNSAAWNWIRQSPARGLEWLGRTYYRSRWYNDYAISMKSRITINPDTSKNQFSLQLESVTPEDTAVYYCAREIRGFDYWGQGTLVTVSS VL: QSVLTQPPSASGSPGQSVTISCTGTSSDVGAYNFVSWYQHHPGKAPKLIIYDFNKRPSGVPDRFSGSKSGNTASLTVSGLQADDEADYYCSSYAGSNNFDVVFGGGTKLTVL",
    "value": 11.09
  }
]
